Test system: NCI-H929 cells
Assay: Cell viability assay (NCI-H929 cells), CCK-8
Assay type: cell-based
Conditions: Homo sapiens, NCI-H929, 24 h, 5% FBS
pIC50: −log10 of the molar value.
parameter: pIC50

* Cc1c(C(=O)O)n2c3ccc(Cl)c(c13)-c1c(nn3c1COCC3)CSCc1cc(n(C)n1)CSc1cc(c3ccc(F)cc3c1)OCCC2 | 7.31
* Cc1c(C(=O)O)n2c3ccc(Cl)c(c13)-c1c(nn(C)c1C)CSCc1cc(n(C(C)C)n1)CSc1cc(c3ccc(F)cc3c1)OCCC2 | 7.11

P = Cc1c(C(=O)O)n2c3ccc(Cl)c(c13)-c1c(nn3c1CCC3)CSCc1cc(n(C)n1)CSc1cc(c3ccc(F)cc3c1)OCCC2
Q = Cc1c2c(nn1C)CSCc1cc(n(C)n1)CSc1cc(c3ccccc3c1)OCCCn1c(C(=O)O)c(Cl)c3c-2c(Cl)ccc31
R = Cc1c(C(=O)O)n2c3ccc(Cl)c(c13)-c1c(nn(C)c1C)CN(S(=O)(=O)C(F)(F)F)Cc1cc(n(C)n1)CSc1cc(c3ccccc3c1)OCCC2
S = Cc1c2c(nn1C)CSCc1cc(n(C)n1)CSc1cc(c3ccc(F)cc3c1)OCCCn1c(C(=O)O)c(C(F)(F)F)c3c-2c(Cl)ccc31
Query :: Your job: order these 4 records by pIC50, ascending. Returns: the labels arranged in the requested order.
Result :: S, Q, R, P
(S: 5.52, Q: 6.32, R: 6.77, P: 7.28)

----------
# solubility values compiled below
Experiment: Kinetic solubility assay in PBS buffer
Format: physicochemical
Conditions: PBS buffer, pH 6.5, aqueous buffer, thermodynamic from solid, read-out: Solubility (pH 6.5, μg/mL)

• CNC(=O)Cn1nc(C)c2c1CSCc1cc(n(C)n1)CSc1cc(c3ccccc3c1)OCCCn1c(C(=O)O)c(C)c3c-2c(Cl)ccc31 [Cpd. No. 26] = < 1 µg/mL
• Cc1c(C(=O)O)n2c3ccc(Cl)c(c13)-c1c(nn(C)c1C)CN(Cc1ncco1)Cc1cc(n(C)n1)CSc1cc(c3ccc(F)cc3c1)OCCC2 [Cpd. No. 52] = 4 µg/mL
• Cc1c(C(=O)O)n2c3ccc(Cl)c(c13)-c1c(nn3c1CC(C)(C)C3)CSCc1cc(n(C)n1)CSc1cc(c3ccc(F)cc3c1)OCCC2 [Cpd. No. 3] = < 1 µg/mL
• Cc1c(C(=O)O)n2c3ccc(Cl)c(c13)-c1c(nn3c1COCC3)CSCc1cc(n(C)n1)CSc1cc(c3ccc(F)cc3c1)OCCC2 [Cpd. No. 4] = < 1 µg/mL
• Cc1c(C(=O)O)n2c3ccc(Cl)c(c13)-c1c(nn3c1CCC3)CSCc1cc(n(C)n1)CSc1cc(c3ccc(F)cc3c1)OCCC2 [Cpd. No. 2] = < 1 µg/mL
• COCCn1nc2c(c1C)-c1c(Cl)ccc3c1c(C)c(C(=O)O)n3CCCOc1cc(cc3ccccc13)SCc1cc(nn1C)CSC2 [Cpd. No. 11] = < 1 µg/mL
• Cc1c2c(nn1C)CSCc1cc(n(C)n1)CSc1cc(c3ccccc3c1)OCCCn1c(C(=O)O)c(Cl)c3c-2c(Cl)ccc31 [Cpd. No. 9] = > 400 µg/mL
• Cc1c(C(=O)O)n2c3ccc(Cl)c(c13)-c1c(nn(C)c1C(F)F)CN(S(C)(=O)=O)Cc1cc(n(C)n1)CSc1cc(c3ccc(F)cc3c1)OCCC2 [Cpd. No. 45] = 94 µg/mL
• Cc1c(C(=O)O)n2c3ccc(Cl)c(c13)-c1c(nn(C)c1C)CN(S(C)(=O)=O)Cc1cc(n(C)n1)CSc1cc(c3ccc(F)cc3c1)OCCC2 [Cpd. No. 32] = > 400 µg/mL
• Cc1c2c(nn1C)CSCc1cc(n(C)n1)CSc1cc(c3ccccc3c1)OCCCc1c(C(=O)O)n(C)c3c-2c(Cl)ccc13 [AZD5991, reference compound] = < 1 µg/mL

Query :: Give the measured solubility of Cc1c(C(=O)O)n2c3ccc(Cl)c(c13)-c1c(nn(C)c1C(F)F)CSCc1cc(n(C)n1)CSc1cc(c3ccc(F)cc3c1)OCCC2 [Cpd. No. 18] .
Result :: < 1 µg/mL

Query :: Moving on to Cc1c(C(=O)O)n2c3ccc(Cl)c(c13)-c1c(nn(C)c1C)CSCc1cc(n(C)n1)CSc1cc(c3ccc(F)cc3c1)OCCC2 [Cpd. No. 14]
Result :: 10 µg/mL
